The measurements presented in this section are drawn from ChEMBL document CHEMBL1255262.

What Activity was measured for each of the following?
# System: Pichia kudriavzevii
# ASSAY EXPLANATION: Antifungal activity against Candida krusei assessed as susceptible isolates after 48 hrs by broth microdilution
# Type: functional
// return numeric value only (unit: %, not printed)

// Activity lookup, key: `Nc1nc(=O)[nH]cc1F`
0

// Activity lookup, key: CCC(C)n1ncn(-c2ccc(N3CCN(c4ccc(OCC5COC(Cn6cncn6)(c6ccc(Cl)cc6Cl)O5)cc4)CC3)cc2)c1=O (centres undefined)
10

// Activity lookup, key: `C[C@@H](c1ncncc1F)[C@](O)(Cn1cncn1)c1ccc(F)cc1F`
100

// Activity lookup, key: `OC(Cn1cncn1)(Cn1cncn1)c1ccc(F)cc1F`
0

----------
# Test system: Candida albicans
# ASSAY EXPLANATION: Antifungal activity against Candida albicans after 48 hrs by broth microdilution
# Assay type: functional
PROPERTY LABEL: MIC50
Output should be the measured figure followed by the unit it is expressed in.

// MIC50 lookup, key: `C[C@@H](c1ncncc1F)[C@](O)(Cn1cncn1)c1ccc(F)cc1F`
0.03 µg/mL

// MIC50 lookup, key: CCC(C)n1ncn(-c2ccc(N3CCN(c4ccc(OCC5COC(Cn6cncn6)(c6ccc(Cl)cc6Cl)O5)cc4)CC3)cc2)c1=O (stereo not drawn)
0.12 µg/mL

// MIC50 lookup, key: `C[C@@H]1[C@H](O)[C@@H](C)/C=C/C=C/C=C/C=C/C=C/C=C/C=C/[C@H](O[C@@H]2O[C@H](C)[C@@H](O)[C@H](N)[C@@H]2O)C[C@@H]2O[C@](O)(C[C@@H](O)C[C@@H](O)[C@H](O)CC[C@@H](O)C[C@@H](O)CC(=O)O[C@H]1C)C[C@H](O)[C@H]2C(=O)O`
1 µg/mL

----------
# Test system: Candida albicans
# ASSAY EXPLANATION: Antifungal activity against Candida albicans assessed as susceptible isolates after 48 hrs by broth microdilution
# Format: functional
PROPERTY LABEL: Activity (%)
// return numeric value only (unit: %, not printed)

// Activity lookup, key: CCC(C)n1ncn(-c2ccc(N3CCN(c4ccc(OCC5COC(Cn6cncn6)(c6ccc(Cl)cc6Cl)O5)cc4)CC3)cc2)c1=O (centres undefined) [ITRACONAZOLE]
50

// Activity lookup, key: OC(Cn1cncn1)(Cn1cncn1)c1ccc(F)cc1F [FLUCONAZOLE]
67.3

// Activity lookup, key: C[C@@H](c1ncncc1F)[C@](O)(Cn1cncn1)c1ccc(F)cc1F [VORICONAZOLE]
75

// Activity lookup, key: Nc1nc(=O)[nH]cc1F [FLUCYTOSINE]
100

----------
# System: Candida parapsilosis
# ASSAY EXPLANATION: Antifungal activity against Candida parapsilosis after 48 hrs by broth microdilution
# Format: functional
# EXPERIMENTAL SETUP: Lodderomyces parapsilosis
Peptide text beside a SMILES is read from it.
PROPERTY LABEL: log10(MIC50) (log10 of the value in µg/mL)
// units: µg/mL (pre-log); metric: MIC50; scale: log10

// log10(MIC50) lookup, key: CC[C@H](C)[C@H](N)C(=O)N[C@@H](CC(C)C)C(=O)N[C@@H](CCCNC(=N)N)C(=O)N[C@@H](Cc1c[nH]c2ccccc12)C(=O)N1CCC[C@H]1C(=O)N[C@@H](Cc1c[nH]c2ccccc12)C(=O)N[C@@H](Cc1c[nH]c2ccccc12)C(=O)N1CCC[C@H]1C(=O)N[C@@H](Cc1c[nH]c2ccccc12)C(=O)N[C@@H](CCCNC(=N)N)C(=O)N[C@@H](CCCNC(=N)N)C(=O)N[C@@H](CCCCN)C(N)=O.Cl.Cl.Cl.Cl.Cl [OMIGANAN PENTAHYDROCHLORIDE] (H-ILRWPWWPWRRK-NH2)
2.11

// log10(MIC50) lookup, key: `Nc1nc(=O)[nH]cc1F`
-0.92

// log10(MIC50) lookup, key: `C[C@@H]1[C@H](O)[C@@H](C)/C=C/C=C/C=C/C=C/C=C/C=C/C=C/[C@H](O[C@@H]2O[C@H](C)[C@@H](O)[C@H](N)[C@@H]2O)C[C@@H]2O[C@](O)(C[C@@H](O)C[C@@H](O)[C@H](O)CC[C@@H](O)C[C@@H](O)CC(=O)O[C@H]1C)C[C@H](O)[C@H]2C(=O)O`
0.00

// log10(MIC50) lookup, key: `C[C@@H](c1ncncc1F)[C@](O)(Cn1cncn1)c1ccc(F)cc1F`
-1.82

// log10(MIC50) lookup, key: `OC(Cn1cncn1)(Cn1cncn1)c1ccc(F)cc1F`
-0.30

// log10(MIC50) lookup, key: CCC(C)n1ncn(-c2ccc(N3CCN(c4ccc(OCC5COC(Cn6cncn6)(c6ccc(Cl)cc6Cl)O5)cc4)CC3)cc2)c1=O (stereo unspecified)
-1.22
